The origin of these recorded values is ChEMBL document CHEMBL1141476.

- System: Candida albicans
- protocol.details: Antifungal activity against Candida albicans FP633
- Assay type: functional
Starred links: 1 amine or outer side, 2 acyl side, 3 side chain; linkers in the order of their positions; H or OH if unused. Positions of bridges follow the written chain, without caps; N, C: chain ends. Non-standard residues stand in square brackets, D forms with d. Residues, ends and D or L forms follow the SMILES beside them. *: point of attachment. hTyr(3S-OH,4S-OH,3'-OSO3H) = N[C@H](C(=O)O)[C@H](O)[C@@H](O)c1ccc(O)c(OS(=O)(=O)O)c1; Orn(4R-OH,5R-OH) = O=C([C@H](C[C@@H](O)[C@@H](O)N[*:3])N[*:1])[*:2]; Pro(3S-OH,4S-Me) = C[C@H]1CN[C@H](C(=O)O)[C@H]1O; X1 = CCCCOc1ccc(-c2ccc(-c3ccc(C(=O)*)cc3)cc2)cc1; Gln(3R-OH) = NC(=O)C[C@@H](O)[C@H](N)C(=O)O; Hyp = O=C(O)[C@@H]1C[C@@H](O)CN1
Could you please report measured MIC for the items listed next?
Answers are plain numbers, in µg/mL.

Answered cases to consult:
>  <molecule>
CCCCOc1ccc(-c2ccc(-c3ccc(C(=O)N[C@H]4C[C@@H](O)[C@@H](O)NC(=O)[C@@H]5[C@@H](O)[C@@H](C)CN5C(=O)[C@H]([C@H](O)CC(N)=O)NC(=O)[C@H]([C@H](O)[C@@H](O)c5ccc(O)c(OS(=O)(=O)O)c5)NC(=O)[C@@H]5C[C@@H](O)CN5C(=O)[C@H]([C@@H](C)O)NC4=O)cc3)cc2)cc1 (X1-[Orn(4R-OH,5R-OH)]T[Hyp][hTyr(3S-OH,4S-OH,3'-OSO3H)][Gln(3R-OH)][Pro(3S-OH,4S-Me)]; lactam 1-C)

>  <MIC [µg/mL]>
0.0125

$$$$
>  <molecule>
CCCCCCCCCCCCOc1ccc2cc(C(=O)N[C@@H]3C[C@@H](O)[C@@H](O)NC(=O)[C@@H]4[C@@H](O)[C@@H](C)CN4C(=O)[C@H]([C@H](O)CC(N)=O)NC(=O)[C@H]([C@H](O)[C@@H](O)c4ccc(O)c(OS(=O)(=O)[O-])c4)NC(=O)[C@@H]4C[C@@H](O)CN4C(=O)C([C@@H](C)O)NC3=O)ccc2c1.[Na+] (some centres undefined)

>  <MIC [µg/mL]>
0.78

$$$$
>  <molecule>
CCCCCCCOc1ccc(-c2ccc(C(=O)N[C@@H]3C[C@@H](O)[C@@H](O)NC(=O)[C@@H]4[C@@H](O)[C@@H](C)CN4C(=O)[C@H]([C@H](O)CC(N)=O)NC(=O)[C@H]([C@H](O)[C@@H](O)c4ccc(O)c(OS(=O)(=O)[O-])c4)NC(=O)[C@@H]4C[C@@H](O)CN4C(=O)C([C@@H](C)O)NC3=O)cc2)cc1.[Na+] (some centres undefined)

>  <MIC [µg/mL]>
0.1

$$$$

Now for a further molecule.
In: If you can, please state the reported MIC value of CCCCCCCCCCOc1ccc(C(=O)N[C@@H]2C[C@@H](O)[C@@H](O)NC(=O)[C@@H]3[C@@H](O)[C@@H](C)CN3C(=O)[C@H]([C@H](O)CC(N)=O)NC(=O)[C@H]([C@H](O)[C@@H](O)c3ccc(O)c(OS(=O)(=O)[O-])c3)NC(=O)[C@@H]3C[C@@H](O)CN3C(=O)C([C@@H](C)O)NC2=O)cc1.[Na+] (some centres undefined) .
Out: 0.2

====

- Tested on: Aspergillus fumigatus
- protocol.details: Antifungal activity against Aspergillus fumigatus FP1305
- Type: functional, organism-based
measure.name: IC50 (ng/mL)
Give bare numbers, in ng/mL.

Answered cases to consult:
>  <compound>
CCCCCCCOc1ccc2cc(C(=O)N[C@@H]3C[C@@H](O)[C@@H](O)NC(=O)[C@@H]4[C@@H](O)[C@@H](C)CN4C(=O)[C@H]([C@H](O)CC(N)=O)NC(=O)[C@H]([C@H](O)[C@@H](O)c4ccc(O)c(OS(=O)(=O)[O-])c4)NC(=O)[C@@H]4C[C@@H](O)CN4C(=O)C([C@@H](C)O)NC3=O)ccc2c1.[Na+] (stereo partly drawn)

>  <experimental.target>
Aspergillus fumigatus

>  <quantity.unit>
ng/mL

>  <IC50>
4

$$$$
>  <compound>
CCCCCCOc1ccc2cc(C(=O)N[C@@H]3C[C@@H](O)[C@@H](O)NC(=O)[C@@H]4[C@@H](O)[C@@H](C)CN4C(=O)[C@H]([C@H](O)CC(N)=O)NC(=O)[C@H]([C@H](O)[C@@H](O)c4ccc(O)c(OS(=O)(=O)[O-])c4)NC(=O)[C@@H]4C[C@@H](O)CN4C(=O)C([C@@H](C)O)NC3=O)ccc2c1.[Na+] (stereo partly drawn)

>  <experimental.target>
Aspergillus fumigatus

>  <quantity.unit>
ng/mL

>  <IC50>
25

$$$$

Now for a further compound.
In: If you can, please state the reported IC50 value of CCCCCCCCCCOc1ccc(C(=O)N[C@@H]2C[C@@H](O)[C@@H](O)NC(=O)[C@@H]3[C@@H](O)[C@@H](C)CN3C(=O)[C@H]([C@H](O)CC(N)=O)NC(=O)[C@H]([C@H](O)[C@@H](O)c3ccc(O)c(OS(=O)(=O)[O-])c3)NC(=O)[C@@H]3C[C@@H](O)CN3C(=O)C([C@@H](C)O)NC2=O)cc1.[Na+] (stereo partly drawn) .
Out: 5

====

- System: Candida albicans
- protocol.details: Antifungal activity against Candida albicans FP633
- Type: functional
Starred links: 1 amine or outer side, 2 acyl side, 3 side chain; linkers in the order of their positions; H or OH if unused. Positions of bridges follow the written chain, without caps; N, C: chain ends. Non-standard residues stand in square brackets, D forms with d. Residues, ends and D or L forms follow the SMILES beside them. *: point of attachment. hTyr(3S-OH,4S-OH,3'-OSO3H) = N[C@H](C(=O)O)[C@H](O)[C@@H](O)c1ccc(O)c(OS(=O)(=O)O)c1; Orn(4R-OH,5S-OH) = O=C([C@H](C[C@@H](O)[C@H](O)N[*:3])N[*:1])[*:2]; Pro(3S-OH,4S-Me) = C[C@H]1CN[C@H](C(=O)O)[C@H]1O; Benzoyl(4-octyloxy) = CCCCCCCCOc1ccc(C(=O)*)cc1; Gln(3R-OH) = NC(=O)C[C@@H](O)[C@H](N)C(=O)O; Hyp = O=C(O)[C@@H]1C[C@@H](O)CN1
measure.name: MIC (µg/mL)
One number for each entry, in µg/mL.

Answered cases to consult:
>  <compound>
CCCCCCCCOc1ccc(C(=O)N[C@H]2C[C@@H](O)[C@H](O)NC(=O)[C@@H]3[C@@H](O)[C@@H](C)CN3C(=O)[C@H]([C@H](O)CC(N)=O)NC(=O)[C@H]([C@H](O)[C@@H](O)c3ccc(O)c(OS(=O)(=O)[O-])c3)NC(=O)[C@@H]3C[C@@H](O)CN3C(=O)[C@H]([C@@H](C)O)NC2=O)cc1.[Na+] [FR-131535] ({Benzoyl(4-octyloxy)}-[Orn(4R-OH,5S-OH)]T[Hyp][hTyr(3S-OH,4S-OH,3'-OSO3H)][Gln(3R-OH)][Pro(3S-OH,4S-Me)]; lactam 1-C)

>  <experimental.target>
Candida albicans

>  <measure.name>
MIC

>  <result.value>
0.78

$$$$
>  <compound>
CCCCCCCOc1ccc2cc(C(=O)N[C@@H]3C[C@@H](O)[C@@H](O)NC(=O)[C@@H]4[C@@H](O)[C@@H](C)CN4C(=O)[C@H]([C@H](O)CC(N)=O)NC(=O)[C@H]([C@H](O)[C@@H](O)c4ccc(O)c(OS(=O)(=O)[O-])c4)NC(=O)[C@@H]4C[C@@H](O)CN4C(=O)C([C@@H](C)O)NC3=O)ccc2c1.[Na+] (stereo partly drawn)

>  <experimental.target>
Candida albicans

>  <measure.name>
MIC

>  <result.value>
0.39

$$$$

Now for a further compound.
In: If you can, please state the reported MIC value of CCCCCCCCOc1ccc2cc(C(=O)N[C@@H]3C[C@@H](O)[C@@H](O)NC(=O)[C@@H]4[C@@H](O)[C@@H](C)CN4C(=O)[C@H]([C@H](O)CC(N)=O)NC(=O)[C@H]([C@H](O)[C@@H](O)c4ccc(O)c(OS(=O)(=O)[O-])c4)NC(=O)[C@@H]4C[C@@H](O)CN4C(=O)C([C@@H](C)O)NC3=O)ccc2c1.[Na+] (stereo partly drawn) .
Out: 0.1

====

- protocol.details: Effect on hemolysis in red blood cells
- Assay type: ADME, cell-based, Erythrocyte
measure.name: LC30

In: If you can, please state the reported LC30 value of CCCCCCCCOc1ccc2cc(C(=O)N[C@@H]3C[C@@H](O)[C@@H](O)NC(=O)[C@@H]4[C@@H](O)[C@@H](C)CN4C(=O)[C@H]([C@H](O)CC(N)=O)NC(=O)[C@H]([C@H](O)[C@@H](O)c4ccc(O)c(OS(=O)(=O)[O-])c4)NC(=O)[C@@H]4C[C@@H](O)CN4C(=O)C([C@@H](C)O)NC3=O)ccc2c1.[Na+] (stereo partly specified) .
Out: > 10000 µg/mL
